Protocol text: Cmax in monkey at 1.0 mg/kg, po by cassette assay
Format: ADME, organism-based, Macaca mulatta
Set-up: dose 1 mg/kg, route oral
Test settings: rhesus monkey, in vivo
Measure: Cmax (ng/mL)

[a] COc1ccc(Oc2ccc3c(c2)C[C@@H](NC[C@H](O)c2ccc(Cl)cc2)CC3)cc1C(=O)O
[b] COc1ccc(Oc2ccc3c(c2)C[C@@H](NC[C@H](O)c2ccc(Cl)nc2)CC3)cc1C(=O)O
**Query** For the two items a and b , which reports the higher Cmax value? Lab log: write the label of the selected item as the result.
**Result** a
(a: 319 ng/mL, b: 59 ng/mL)
